assay: in vitro; conditions: rat, gh3-tre-luc cells, AC50 (uM) modified / 1000, Tox21_110001=Tox21_302270; viability, 1 nM T3 present, 24 h
observation.type: CC50 at 24 h (µM)
The reply should contain only the number, in µM.

Give a short answer stating reported CC50 at 24 h for CCC(=O)O[C@H]1CC[C@H]2[C@@H]3CCC4=CC(=O)CC[C@]4(C)[C@H]3CC[C@]12C [Testosterone propionate] .
55

---

test system: GH3-TRE-Luc cell line; conditions: read-out: AC50 (uM) modified / 1000; Tox21_110001=Tox21_202335; viability, 1 nM T3 present, 24 h
observation.type: CC50

Give a short answer stating reported CC50 for "O=c1[nH]cc(F)c(=O)[nH]1" .
16.7 µM

---

Catalogue of CC50 at 24 h readings, one per entry.
assay: in vitro; conditions: rat, gh3-tre-luc cells, AC50 (uM) modified / 1000

// worked examples, CC50 at 24 h included
compound=COc1ccc(N=[N+]([O-])c2ccc(OC)cc2)cc1 data_value="> 90 µM"
compound="CCC(C)Nc1ccc(NC(C)CC)cc1 (stereo not shown)" data_value="14 µM"
compound=OCCC(F)(F)C(F)(F)C(F)(F)C(F)(F)C(F)(F)C(F)(F)C(F)(F)C(F)(F)F data_value="> 90 µM"
compound="COC(=O)CCCC(=O)OC [Dimethyl glutarate]" data_value="> 90 µM"
compound=Nc1ccc(N)c2c1C(=O)c1ccccc1C2=O data_value="55.3 µM"
compound="Cc1occc(=O)c1OC(=O)C(C)C [Maltol isobutyrate]" data_value="> 90 µM"
compound=FC(F)(F)c1ccc(Cl)c(Cl)c1 data_value="> 90 µM"
compound=CC(C)=CCC/C(C)=C\C#N data_value="> 90 µM"

Give a short answer stating reported CC50 at 24 h for CC(O)COCC(C)O (stereo not shown) .
> 90 µM

Give a short answer stating reported CC50 at 24 h for CCCCC(CC)COC(=O)c1ccc(C(=O)OCC(CC)CCCC)cc1 (stereo not shown) [Bis(2-ethylhexyl) terephthalate] .
> 90 µM

---

tested on: GH3-TRE-Luc cell line; settings: read-out: AC50 (uM) modified / 1000; Tox21_110001=Tox21_110227; viability, 1 nM T3 present, 24 h
observation.type: CC50

Give a short answer stating reported CC50 for CC(CN1c2ccccc2Sc2ccccc21)N(C)C (stereo not shown) [Promethazine] .
17.9 µM

---

test: in vitro; conditions: rat, gh3-tre-luc cells, AC50 (uM) modified / 1000
observation.type: CC50 at 24 h

molecule="O=C1c2c(O)cccc2Cc2cccc(O)c21 [Anthralin]" data_value="> 90 µM"

Give a short answer stating reported CC50 at 24 h for OCCN1CCNCC1 [1-Piperazineethanol] .
> 90 µM

Give a short answer stating reported CC50 at 24 h for O=C(/C=C/c1cccc(F)c1)NC1CC1 [Cinflumide] .
> 50 µM

---

assay: in vitro; conditions: rat, gh3-tre-luc cells, AC50 (uM) modified / 1000, Tox21_110001=Tox21_200522; viability, 1 nM T3 present, 24 h
observation.type: CC50 at 24 h

Give a short answer stating reported CC50 at 24 h for O=C1CCCCC1Cl (stereo not shown) .
> 90 µM

---

tested on: GH3-TRE-Luc cell line; conditions: read-out: AC50 (uM) modified / 1000; Tox21_110001=Tox21_300622; viability, 1 nM T3 present, 24 h
observation.type: CC50 (µM)
The reply should contain only the number, in µM.

Report CC50 from GH3-TRE-Luc cell line testing of Clc1ccc(C(c2ccccc2Cl)C(Cl)(Cl)Cl)cc1 (stereo not shown)
39.9

---

test: in vitro; settings: rat, gh3-tre-luc cells, AC50 (uM) modified / 1000, Tox21_110001=Tox21_301548; viability, 1 nM T3 present, 24 h
observation.type: CC50 at 24 h

Give a short answer stating reported CC50 at 24 h for CCCCCCCc1ccc(O)cc1 [4-Heptylphenol] .
> 90 µM

---

assay: in vitro; details: rat, gh3-tre-luc cells, AC50 (uM) modified / 1000, Tox21_110001=Tox21_113416; viability, 1 nM T3 present, 24 h
observation.type: CC50 at 24 h

Give a short answer stating reported CC50 at 24 h for COP(=S)(OC)Oc1cc(Cl)c(Cl)cc1Cl [Fenchlorphos] .
> 50 µM

---

assay: in vitro; conditions: rat, gh3-tre-luc cells, AC50 (uM) modified / 1000, Tox21_110001=Tox21_300822; viability, 1 nM T3 present, 24 h
observation.type: CC50 at 24 h

Give a short answer stating reported CC50 at 24 h for "COC(=O)c1c(C(F)F)nc(C(F)(F)F)c(C2=NCCS2)c1CC(C)C" .
> 90 µM

---

Catalogue of CC50 at 24 h readings, one per entry.
assay: in vitro; conditions: rat, gh3-tre-luc cells, AC50 (uM) modified / 1000

// worked examples, CC50 at 24 h included
compound=O=C1CCC(c2ccc(-n3ccnc3)cc2)=NN1 data_value="> 50 µM"
compound=CCCN(CCC)C(=O)CN data_value="3.55 µM"
compound="CCCN(CCC)C(=O)C(CCC(=O)O)NC(=O)c1ccccc1 (centres unmarked) [Proglumide]" data_value="> 50 µM"
compound=O=C(O)CCCCC(=O)O data_value="> 90 µM"

Next compound, please.
Give a short answer stating reported CC50 at 24 h for "CCCCC1=NC2(CCCC2)C(=O)N1Cc1ccc(-c2ccccc2-c2nnn[nH]2)cc1" .
> 50 µM

---

assay: in vitro; details: rat, gh3-tre-luc cells, AC50 (uM) modified / 1000, Tox21_110001=Tox21_202250; viability, 1 nM T3 present, 24 h
observation.type: CC50 at 24 h

Give a short answer stating reported CC50 at 24 h for COP(N)(=O)SC (stereo not shown) .
> 90 µM

---

system: GH3-TRE-Luc cell line; conditions: read-out: AC50 (uM) modified / 1000; Tox21_110001=Tox21_110167; viability, 1 nM T3 present, 24 h
observation.type: CC50 (µM)
The reply should contain only the number, in µM.

Report CC50 from GH3-TRE-Luc cell line testing of "NCCc1ccc(O)c(O)c1"
37

---

experiment: in vitro; details: rat, gh3-tre-luc cells, AC50 (uM) modified / 1000, Tox21_110001=Tox21_113271; viability, 1 nM T3 present, 24 h
observation.type: CC50 at 24 h

Give a short answer stating reported CC50 at 24 h for "CCOC(=O)NC(C)(C)Cc1ccc(Cl)cc1" .
> 50 µM

---

system: GH3-TRE-Luc cell line; conditions: read-out: AC50 (uM) modified / 1000; Tox21_110001=Tox21_300194; viability, 1 nM T3 present, 24 h
observation.type: CC50
Please provide the amount together with its unit, number first.

Give a short answer stating reported CC50 for O=P(OC(CCl)CCl)(OC(CCl)CCl)OC(CCl)CCl [Tris(1,3-dichloro-2-propyl) phosphate] .
36.6 µM

---

assay: in vitro; conditions: rat, gh3-tre-luc cells, AC50 (uM) modified / 1000
Counter-ions that a name gives are not always drawn.
observation.type: CC50 at 24 h

// worked examples, CC50 at 24 h included
molecule="O=C1c2ccccc2C(=O)C1c1ccc(F)cc1 [Fluindione]" observation_type="CC50 at 24 h" data_value="> 50 µM"
molecule="c1ccc(-c2ccccc2)cc1 [Biphenyl]" observation_type="CC50 at 24 h" data_value="> 90 µM"

Give a short answer stating reported CC50 at 24 h for NC(CO)C(=O)NNCc1ccc(O)c(O)c1O (centres unmarked) [Benserazide hydrochloride] .
> 50 µM

Give a short answer stating reported CC50 at 24 h for CCCC[n+]1cccc(C)c1 [1-Butyl-3-methylpyridinium bromide] .
> 90 µM

Give a short answer stating reported CC50 at 24 h for CC(C)c1ccc(CO)cc1 [4-Isopropylbenzyl alcohol] .
> 90 µM

Give a short answer stating reported CC50 at 24 h for CCCOCCOCCO [2-(2-Propoxyethoxy)ethanol] .
> 90 µM

Give a short answer stating reported CC50 at 24 h for COc1ccccc1Oc1c(NS(=O)(=O)c2ccc(C(C)(C)C)cc2)nc(-c2ncccn2)nc1OCCO [Bosentan] .
> 50 µM

Give a short answer stating reported CC50 at 24 h for c1ccc(OCC2CO2)cc1 (centres unmarked) [Phenyl glycidyl ether] .
> 90 µM

Give a short answer stating reported CC50 at 24 h for CN(C)CCOc1ccc(/C(=C(/CCCl)c2ccccc2)c2ccccc2)cc1 [Toremifene citrate] .
8.87 µM

Give a short answer stating reported CC50 at 24 h for CC1=C(C)S(=O)(=O)CCS1(=O)=O [Dimethipin] .
> 90 µM

Give a short answer stating reported CC50 at 24 h for CCCO [1-Propanol] .
> 90 µM

// provenance: paper PMC6792352
